Target: UniProtKB P35561
Sequence (P35561 whole entry, looked up): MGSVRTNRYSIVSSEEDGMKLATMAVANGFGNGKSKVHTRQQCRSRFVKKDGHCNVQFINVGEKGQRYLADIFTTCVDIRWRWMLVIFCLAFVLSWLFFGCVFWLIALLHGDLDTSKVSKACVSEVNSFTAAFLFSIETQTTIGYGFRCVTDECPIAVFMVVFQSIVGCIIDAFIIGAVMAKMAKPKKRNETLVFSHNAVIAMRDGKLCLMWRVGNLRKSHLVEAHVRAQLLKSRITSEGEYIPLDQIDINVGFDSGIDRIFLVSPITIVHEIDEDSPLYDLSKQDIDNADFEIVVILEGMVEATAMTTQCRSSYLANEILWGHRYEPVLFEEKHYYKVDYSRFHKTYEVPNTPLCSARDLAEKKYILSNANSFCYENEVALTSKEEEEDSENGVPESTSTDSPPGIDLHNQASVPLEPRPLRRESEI
Test: blockers of mouse Kir2.1 inward rectifier current – cell-based, IonWorks automated patch clamp, -100 mV, SAR follow-up (AID 504559)
Conditions: Kir2.1 cell line, IonWorks patch clamp current at -100 mV
Catalogue of IC50 values

Compound	IC50
C[C@@H](NS(=O)(=O)c1cccc(Br)c1)c1ccccc1	30.6 µM
CC(O)CNCCCOc1cccc(Oc2ccccc2)c1 (stereo unspecified)	11.4 µM
C[C@H](NS(=O)(=O)c1ccc(Br)cc1)c1ccccc1	21.3 µM
Cc1ccc(C)c(OCCCNCc2ccccc2)c1	20.5 µM
C[C@H](NS(=O)(=O)c1cccc(Br)c1)c1ccccc1	30.9 µM
C[C@H](NS(=O)(=O)c1ccc(Cl)cc1)c1ccccc1	21.6 µM
